- Test system: R. ferrugineus adults
- TEST DETAILS: Antifeedant/insecticidal test on adults with treated sugarcane stem (probit LC50)
- Type: in vivo, Rhynchophorus ferrugineus
- RUN PARAMETERS: Rhynchophorus ferrugineus, 24 h, after 1 day of treatment, 95% confidence limits in brackets, read-out: LC50
Here, each record is paired with measured LC50 data.
The response must be a number in µg/mL with no trailing unit.

[[record]]
compound = "COc1ccc(-c2cc(=O)c3c(O)c(OC)c(OC)cc3o2)cc1 [Salvigenin]"
property_name = "LC50"
observed_result = 1140

[[record]]
compound = "O=C(O)C[C@H](C(=O)O)[C@@H](O)C(=O)O [Isocitric acid]"
property_name = "LC50"
observed_result = 1800

[[record]]
compound = "C[C@@H]1O[C@@H](OC[C@H]2O[C@@H](Oc3c(-c4ccc(O)c(O)c4)oc4cc(O)cc(O)c4c3=O)[C@H](O)[C@@H](O)[C@@H]2O)[C@H](O)[C@H](O)[C@H]1O [Quercetin-3-O-rutinoside]"
property_name = "LC50"
observed_result = 1170

[[record]]
compound = "O=C(/C=C/c1ccc(O)c(O)c1)O/C=C\\c1ccc(O)c(O)c1 [Nepetoidin B]"
property_name = "LC50"
observed_result = 1270

[[record]]
compound = "O=C(/C=C/c1ccc(O)c(O)c1)O[C@@H](C(=O)O)[C@@H](O)C(=O)O [Caftaric acid]"
property_name = "LC50"
observed_result = 1490

[[record]]
compound = "O=C(/C=C/c1ccc(O)c(O)c1)O[C@H](Cc1ccc(O)c(O)c1)C(=O)O [Rosmarinic acid]"
property_name = "LC50"
observed_result = 1430

[[record]]
compound = "COc1cc(/C=C/C(=O)O[C@@H](C(=O)O)[C@@H](O)C(=O)O)ccc1O [Fertaric acid]"
property_name = "LC50"
observed_result = 1530

[[record]]
compound = "O=C(/C=C/c1ccc(O)c(O)c1/C=C/c1ccc(O)c(O)c1)O[C@H](Cc1ccc(O)c(O)c1)C(=O)O [Salvianolic acid A]"
property_name = "LC50"
observed_result = 1260

[[record]]
compound = "O=C(C=Cc1ccc(O)c(O)c1)OC(Cc1ccc(O)c(O)c1)C(=O)OC1OC(CO)C(O)C(O)C1O (stereo not shown) [Rosmarinic acid glucoside]"
property_name = "LC50"
observed_result = 1230


As a next step, examine the compound that follows.
// sample C[C@H]1[C@H](C)CC[C@]2(C(=O)O)CC[C@]3(C)C(=CC[C@@H]4[C@@]5(C)CC[C@H](O)C(C)(C)[C@@H]5CC[C@]43C)[C@H]12 [Ursolic acid] , its LC50 was 1120

The measured values listed here are drawn from paper PMC10892409.
